# Test system: A549
# measurementNotes: Antiproliferative activity against human A549 cells assessed as inhibition of cell growth
# Assay type: functional, cell-based
pIC50: −log10 of the molar value.
outcomeMeasure: pIC50

Recorded results for 3 molecules are shown here.
O=c1c2ccccc2nc2n1-c1ccccc1/C2=N/N=c1/scc(-c2ccc(Cl)cc2)n1-c1ccccc1 :: 4.18
N#Cc1ccc(-c2cs/c(=N/N=C3/c4ccccc4-n4c3nc3ccccc3c4=O)n2-c2ccccc2)cc1 :: 4.54
O=c1c2ccccc2nc2n1-c1ccccc1/C2=N/N=c1/scc(-c2ccc(O)cc2)n1-c1ccccc1 :: 4.42

(A) N#Cc1ccc(-c2csc(N/N=C3/c4ccccc4N4C(=O)C5C=CC=CC5=NC34)n2)cc1 (stereo unspecified)
(B) O=C1C2C=CC=CC2=NC2/C(=N\Nc3nc(-c4ccccc4)cs3)c3ccccc3N12 (stereo unspecified)
Of the two listed items, A and B , which carries the larger pIC50 figure? Answer with the label corresponding to your selection.
A

###

# Tested on: PC-3
# measurementNotes: Antiproliferative activity against human PC-3 cells incubated by 48 hrs by MTT assay
# Format: functional, cell-based
# conditionDetails: PC-3, 48 h
outcomeMeasure: IC50 (µM)

Check out these entries, answers already filled in.
O=C1c2cccc(F)c2-n2c1nc1ccccc1c2=O :: 7.05
O=C1c2cc(F)c(F)cc2-n2c1nc1ccccc1c2=O :: 10.4
O=C1c2ccccc2-n2c1nc1ccc(F)cc1c2=O :: 9.7

(1) O=C1c2cc(Cl)ccc2-n2c1nc1ccccc1c2=O
(2) O=C1c2ccccc2-n2c1nc1ccccc1c2=O
# query: argmin of IC50 over 1 and 2 Mark your answer with the label of the selected entry.
1
(1: 8.48 µM, 2: 14.5 µM)

###

# Test system: K562
# measurementNotes: Anticancer activity against human K562 cells measured after 48 hrs
# Type: functional, cell-based
# conditionDetails: K562, 48 h
outcomeMeasure: pIC50
// pIC50: -log10(molar conc.)

Provide one value: measured pIC50 of O=C1c2cc(Br)ccc2-n2c1nc1ccccc1c2=O
5.30

###

# measurementNotes: Cytotoxicity activity against human HDF cells
# Format: toxicity, cell-based
# conditionDetails: HDF cells (NHDF)
outcomeMeasure: IC50

# example entries with known answers
Cc1n[nH]c2c1[C@@]1(C(C#N)=C(N)O2)c2ccccc2-n2c1nc1ccccc1c2=O :: > 100 µM
Cc1n[nH]c2c1[C@@]1(C(C#N)=CO2)c2cc(-c3cccc(Cl)c3)ccc2-n2c1nc1ccccc1c2=O :: > 100 µM
Cc1nn(Cl)c2c1[C@@]1(C(C#N)=CO2)c2cc(-c3cccc(Cl)c3)ccc2-n2c1nc1ccccc1c2=O :: > 100 µM

We next turn to a different molecule, shown below.
Specify IC50 for Cc1nn(Br)c2c1[C@@]1(C(C#N)=C(N)O2)c2ccccc2-n2c1nc1ccccc1c2=O and stop.
> 100 µM

###

# Tested on: MDA-MB-231
# measurementNotes: Antiproliferative activity against human MDA-MB-231 cells measured after 48 hrs
# Format: functional, cell-based
# conditionDetails: MDA-MB-231, 48 h
outcomeMeasure: IC50

// solved cases for IC50 follow
O=C1c2cc(Cl)c(N3CCCCC3)cc2-n2c1nc1ccccc1c2=O :: > 100 µM
O=C1c2c(ccc(F)c2N2CCN(CCO)CC2)-n2c1nc1ccccc1c2=O :: > 100 µM
O=C1c2c(N3CCNCC3)cccc2-n2c1nc1ccccc1c2=O :: 56.1 µM
O=C1c2c(N3CCCCC3)cccc2-n2c1nc1ccccc1c2=O :: > 100 µM
O=C1c2c(N3CCN(c4ccccn4)CC3)cccc2-n2c1nc1ccccc1c2=O :: > 100 µM
O=C1c2c(ccc(F)c2N2CCN(c3ccccn3)CC2)-n2c1nc1ccccc1c2=O :: > 100 µM

Print MDA-MB-231 IC50 for O=C1c2c(ccc(F)c2N2CCCCC2)-n2c1nc1ccccc1c2=O .
> 100 µM

For MDA-MB-231, give the measured IC50 of the entry CN(C)c1cccc2c1C(=O)c1nc3ccccc3c(=O)n1-2
> 100 µM

Quote MDA-MB-231 IC50 for entry O=C1c2c(ccc(F)c2N2CCOCC2)-n2c1nc1ccccc1c2=O .
> 100 µM

Using MDA-MB-231 as the test system, report measured IC50 of CCN(CC)c1cc2c(cc1Cl)C(=O)c1nc3ccccc3c(=O)n1-2 .
1.78 µM

Name the value of IC50 reported for O=C1c2c(ccc(F)c2N2CCN(C(=O)c3ccco3)CC2)-n2c1nc1ccccc1c2=O when tested on MDA-MB-231.
> 100 µM

Report IC50 on MDA-MB-231 for this entry: O=C1c2c(N3CCOCC3)cccc2-n2c1nc1ccccc1c2=O
48.3 µM
